I'd be grateful if you could share measured inhibition for these entries.
- MEASUREMENT_TARGET: Beta-glucuronidase (Escherichia coli (strain K12))
- METHOD_DESCRIPTION: Inhibition of Escherichia coli beta-glucuronidase assessed as reduction of p-nitrophenol release using beta-PNPG as substrate at 10 uM incubated for 30 mins by Spectra max microplate reader analysis relative to control
Numbers only, in %.

smiles_structure=C[C@H]1C[C@H](O)[C@@H](OCc2cc(O)cc(Cl)c2O)C[C@H]1O reported_property=inhibition measure_unit=% reported=91.8
smiles_structure=Cc1cccc(O)c1C(=O)O[C@@H]1C(=O)C(CO)=C[C@@H](O)[C@H]1O reported_property=inhibition measure_unit=% reported=27.6
smiles_structure=Oc1cc(Cl)c(O)c(COCc2cc(O)cc(Cl)c2O)c1 reported_property=inhibition measure_unit=% reported=101

Now, please, on to the next compound.
-- ask Any idea what inhibition was measured for CC1=C[C@@H](O)[C@@H](O)[C@H](Cl)C1=O ?
-- reply 100
